- ASSAY_METHOD_TEXT: qHTS assay to identify aromatase inhibitors - cell viability counter screen (AID 743084);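 also: cells stimulated with testosterone during compound exposure; nearly all actives have a fitted effect of over 55% in size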
- SETUP_CONDITIONS: MCF-7 aro ERE viability, CellTiter-Fluor, 24 h; series mostly up to 70.3 µM
Inconclusive results are not listed. Calls of active or inactive are those of the source. Calls follow the shape of the dose curve; as a rule, active = well fitted cell-killing curve with a large enough effect in the repeat runs; inconclusive = weak or mixed curves, or effect the other way; inactive = no such curve, though single readings can be large or run the other way.
Give your call using only these classes: true for active, false for inactive

Here are 5 compounds together with their reported answers.
Cc1nc(NS(=O)(=O)c2ccc(N)cc2)nc(C)c1Br	false
C[N+]1(C)[C@@H]2CC(OC(=O)C(O)(c3cccs3)c3cccs3)C[C@H]1[C@@H]1O[C@@H]12 (some centres undefined)	false
CCCCC(=O)N(Cc1ccc(-c2ccccc2-c2nn[nH]n2)cc1)[C@@H](C(=O)O)C(C)C	false
C=CCOc1ccc(CC(=O)O)cc1Cl	false
C=CC1=C(C)C2=CC3=NC(=C(CC(=O)[O-])C4=NC(=C(C)C4=C([O-])[O-])C=c4[n-]c(c(C)c4CC)=CC1=N2)C(CCC(=O)[O-])C3C.[Cu+2].[Na+].[Na+].[Na+] (centres undefined)	true

Answer briefly: the call reported for OC[C@H]1O[C@@H](n2cnc3c2NC=NC[C@H]3O)C[C@@H]1O in this assay.
false

I would be grateful if you could indicate the recorded call for c1ccc2c(CCC3CCNCC3)c[nH]c2c1 .
false

In this assay, the call recorded for c1cnc2cc3c(cc2n1)[C@@H]1CNC[C@H]3C1 was what?
false

Can you look up the reported call for CCOC(=O)[C@H](CCc1ccccc1)N[C@H]1CCCN2CCC[C@@H](C(=O)O)N2C1=O for me?
false

---

- ASSAY_METHOD_TEXT: qHTS assay to identify small molecule antagonists of the thyroid receptor (TR) signaling pathway (AID 743065); also: nearly all actives have a fitted effect of over 55% in size
- SETUP_CONDITIONS: GH3.TRE-Luc, T3-stimulated luciferase inhibition, 23.5 h; series mostly up to 70.3 µM
Inconclusive results are not listed. Activity calls are given as the source filed them. Calls follow the shape of the dose curve; as a rule, active = well fitted inhibition curve with a large enough effect in the repeat runs; inconclusive = weak or mixed curves; inactive = no such curve, though single readings can be large or run the other way.
// one of YES = active, NO = inactive, no free text

Below, 3 molecules whose answers are already recorded.
CCN(CC)c1ccc(N=Nc2ccc(S(=O)(=O)N(C)C)cc2)c(S(=O)(=O)NCC[n+]2ccccc2)c1	NO
CO[C@H]1C[C@@H]2CC[C@@H](C)[C@@](O)(O2)C(=O)C(=O)N2CCCC[C@H]2C(=O)O[C@H]([C@H](C)C[C@@H]2CC[C@@H](OCCO)[C@H](OC)C2)CC(=O)[C@H](C)/C=C(\C)[C@@H](O)[C@@H](OC)C(=O)[C@H](C)C[C@H](C)/C=C/C=C/C=C/1C	YES
CO/N=C(\C(=O)N[C@@H]1C(=O)N2C(C(=O)O)=CCS[C@H]12)c1csc(N)n1	NO

Read the next record carefully.
Just curious, what result did CCOC(=O)COc1ccc2c(C)c(CCN(CC)CC)c(=O)oc2c1 get here?
NO

---

- ASSAY_METHOD_TEXT: qHTS assay for identifying genotoxic compounds that show differential cytotoxicity against isogenic chicken DT40 cell lines with known DNA damage response pathways - Rev3 mutant cell line (AID 743014); also: nearly all actives have a fitted effect of over 55% in size
- SETUP_CONDITIONS: chicken DT40 Rev3-/- viability, CellTiter-Glo, 40 h; series mostly up to 68.4 µM
Results filed as inconclusive are left out. Activity calls are given as the source filed them. Calls come from the whole dose curve; as a rule, active = well fitted cell-killing curve with a large enough effect in the repeat runs; inconclusive = weak or mixed curves, or effect the other way; inactive = no such curve, though single readings can be large or run the other way.
Respond with a class label; see active, inactive

Could you kindly confirm the outcome this assay logged for CCCCCCCCCCCCCCCC(=O)OCC(COC(=O)CCCCCCCCCCCCCCC)OC(=O)CCCCCCCCCCCCCCC ?
inactive
